// each record: one item and its Ki for Histamine H3 receptor (Homo sapiens)
property_name: Ki (nM)

In [3]: df
Out[3]:
                               smiles_input                     system_under_test  property_name  numeric_readout
0  C[C@@H](NC(=O)c1ccc(C#N)cc1)C(=O)N1CCCN(CCCOc2ccc(-c3noc(CC4CCCC4)n3)c(F)c2)CC1  Histamine H3 receptor (Homo sapiens)             Ki               12
1  C[C@@H](NC(=O)c1ccc(Br)cc1)C(=O)N1CCN(CCCOc2ccc(-c3noc(CC4CCCC4)n3)c(F)c2)CC1  Histamine H3 receptor (Homo sapiens)             Ki               18
2  CC(C)C(=O)N[C@H](C)C(=O)N1CCN(CCCOc2ccc(-c3noc(-c4ccccc4)n3)c(F)c2)CC1  Histamine H3 receptor (Homo sapiens)             Ki              110
3  C[C@@H](NC(=O)c1ccco1)C(=O)N1CCCN(CCCOc2ccc(-c3noc(-c4cccnc4)n3)c(F)c2)CC1  Histamine H3 receptor (Homo sapiens)             Ki              190
4  C[C@@H](NC(=O)c1ccco1)C(=O)N1CCCN(CCCOc2ccc(-c3noc([C@@H](C)NC(=O)OC(C)(C)C)n3)c(F)c2)CC1  Histamine H3 receptor (Homo sapiens)             Ki              520

(I) C[C@@H](NC(=O)C1CCCCC1)C(=O)N1CCN(CCCOc2ccc(-c3noc(-c4ccccc4)n3)c(F)c2)CC1
(II) C[C@@H](NC(=O)c1ccc(C#N)cc1)C(=O)N1CCN(CCCOc2ccc(-c3noc(CC4CCCC4)n3)c(F)c2)CC1
Q) Form field 'greater Ki' accepts I or II ; which applies? Identify your pick by its label.
A) I

(a) C[C@@H](NC(=O)C(C)(C)C)C(=O)N1CCCN(CCCOc2ccc(-c3noc(CC4CCCC4)n3)c(F)c2)CC1
(b) CC(C)C(=O)N[C@H](C)C(=O)N1CCN(CCCOc2ccc(-c3noc(CC4CCCC4)n3)c(F)c2)CC1
Q) Form field 'greater Ki' accepts a or b ; which applies? Identify your pick by its label.
A) b

----------
// each record: one item and its Ki for Histamine H3 receptor (Rattus norvegicus, UniProt Q9QYN8)
property_name: Ki (nM)

// solved cases for Ki follow
In [3]: df
Out[3]:
                               smiles_input  numeric_readout
0  C[C@@H](NC(=O)c1ccc(Cl)c(Cl)c1)C(=O)N1CCN(CCCOc2ccc(-c3noc(CC4CCCC4)n3)c(F)c2)CC1              1.8
1  C[C@@H](NC(=O)c1ccco1)C(=O)N1CCN(CCCOc2ccc(-c3noc(C4CC4)n3)c(F)c2)CC1              1.1
2  C[C@@H](NC(=O)c1ccco1)C(=O)N1CCCN(CCCOc2ccc(-c3noc(Cc4ccccc4)n3)c(F)c2)CC1              1.6

(a) Cc1ccc(C(=O)N[C@H](C)C(=O)N2CCCN(CCCOc3ccc(-c4noc(CC5CCCC5)n4)c(F)c3)CC2)cc1
(b) C[C@@H](NC(=O)[C@H]1CCCO1)C(=O)N1CCN(CCCOc2ccc(-c3noc(-c4ccccc4)n3)c(F)c2)CC1
(c) C[C@@H](NC(=O)C(C)(C)C)C(=O)N1CCCN(CCCOc2ccc(-c3noc(CC4CCCC4)n3)c(F)c2)CC1
(d) C[C@@H](NC(=O)c1ccccc1F)C(=O)N1CCN(CCCOc2ccc(-c3noc(CC4CCCC4)n3)c(F)c2)CC1
Q) rank_up(items): orders items by reported Ki in ascending numerical order. I'd appreciate it if you listed the labels in the requested order.
A) a, c, d, b
(a: 1.4 nM, c: 2 nM, d: 2.9 nM, b: 4.2 nM)

----------
molecular target: Histamine H3 receptor (Homo sapiens, UniProt Q9Y5N1)
Sequence (Q9Y5N1 whole entry): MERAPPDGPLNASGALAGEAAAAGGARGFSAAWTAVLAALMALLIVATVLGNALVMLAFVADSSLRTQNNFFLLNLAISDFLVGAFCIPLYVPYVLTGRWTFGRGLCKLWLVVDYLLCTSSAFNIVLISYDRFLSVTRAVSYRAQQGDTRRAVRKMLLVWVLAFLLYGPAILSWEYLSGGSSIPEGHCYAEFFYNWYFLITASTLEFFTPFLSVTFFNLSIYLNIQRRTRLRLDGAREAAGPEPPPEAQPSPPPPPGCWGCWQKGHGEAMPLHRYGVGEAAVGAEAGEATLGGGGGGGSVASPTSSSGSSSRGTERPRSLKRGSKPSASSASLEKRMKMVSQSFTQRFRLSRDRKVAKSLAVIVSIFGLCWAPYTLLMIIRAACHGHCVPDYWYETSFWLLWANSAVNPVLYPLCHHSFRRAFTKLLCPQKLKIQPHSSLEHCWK
property_name: Ki (nM)

>>> print(df.to_string())
                               smiles_input  numeric_readout
0  C[C@@H](NC(=O)c1cccc(Cl)c1)C(=O)N1CCN(CCCOc2ccc(-c3noc(CC4CCCC4)n3)c(F)c2)CC1               36
1  CCC(=O)N[C@H](C)C(=O)N1CCN(CCCOc2ccc(-c3noc(CC4CCCC4)n3)c(F)c2)CC1              170

(A) CCC(CC)c1nc(-c2ccc(OCCCN3CCCN(C(=O)[C@@H](C)NC(=O)c4ccco4)CC3)cc2F)no1
(B) C[C@@H](NC(=O)CC(C)(C)C)C(=O)N1CCN(CCCOc2ccc(-c3noc(CC4CCCC4)n3)c(F)c2)CC1
Q) Form field 'greater Ki' accepts A or B ; which applies? Identify your pick by its label.
A) B
(B: 100 nM, A: 34 nM)

----------
// each record: one item and its Ki for Histamine H3 receptor (Homo sapiens, UniProt Q9Y5N1)
property_name: Ki (nM)

// solved cases for Ki follow
                               smiles_input  unit_label  numeric_readout
0  CC(C)CCC(=O)N[C@H](C)C(=O)N1CCCN(CCCOc2ccc(-c3noc(CC4CCCC4)n3)c(F)c2)CC1          nM               23
1  C[C@@H](NC(=O)c1ccco1)C(=O)N1CCCN(CCCOc2ccc(-c3noc(C4CCCC4)n3)c(F)c2)CC1          nM               15
2  C[C@@H](NC(=O)c1ccccc1)C(=O)N1CCN(CCCOc2ccc(-c3noc(-c4ccccc4)n3)c(F)c2)CC1          nM               39

(A) CCCCC(=O)N[C@H](C)C(=O)N1CCN(CCCOc2ccc(-c3noc(CC4CCCC4)n3)c(F)c2)CC1
(B) Cc1cccc(C(=O)N[C@H](C)C(=O)N2CCN(CCCOc3ccc(-c4noc(CC5CCCC5)n4)c(F)c3)CC2)c1
(C) C[C@@H](NC(=O)c1ccco1)C(=O)N1CCCN(CCCOc2ccc(-c3noc(CC4CCCC4)n3)c(F)c2)CC1
Q) rank_up(items): orders items by reported Ki in ascending numerical order. I'd appreciate it if you listed the labels in the requested order.
A) C, B, A

----------
pKi: −log10 of the molar value.
// each record: one item and its pKi for Histamine H3 receptor (Rattus norvegicus, UniProt Q9QYN8)
property_name: pKi

// solved cases for pKi follow
In [3]: df
Out[3]:
                                   compound  numeric_readout
0  C[C@@H](NC(=O)c1ccco1)C(=O)N1CCCN(CCCOc2ccc(-c3noc(-c4cccnc4)n3)c(F)c2)CC1             8.16
1  C[C@H](NC(=O)OC(C)(C)C)c1nc(-c2ccc(OCCCN3CCCN(C(=O)[C@@H](C)NC(=O)c4ccco4)CC3)cc2F)no1             8.09
2  CCC(=O)N[C@H](C)C(=O)N1CCCN(CCCOc2ccc(-c3noc(CC4CCCC4)n3)c(F)c2)CC1             8.96
3  C[C@@H](NC(=O)c1ccco1)C(=O)N1CCCN(CCCOc2ccc(-c3noc(CC4CCCCC4)n3)c(F)c2)CC1             8.59
4  C[C@@H](NC(=O)c1ccco1)C(=O)N1CCCN(CCCOc2ccc(-c3noc(C4CCCO4)n3)c(F)c2)CC1 (mixture of isomers)             8.11
5  CC(C)CCC(=O)N[C@H](C)C(=O)N1CCN(CCCOc2ccc(-c3noc(-c4ccccc4)n3)c(F)c2)CC1             7.85
6  CC(C)C(=O)N[C@H](C)C(=O)N1CCN(CCCOc2ccc(-c3noc(CC4CCCC4)n3)c(F)c2)CC1             8.10
7  CC(C)c1nc(-c2ccc(OCCCN3CCCN(C(=O)[C@@H](C)NC(=O)c4ccco4)CC3)cc2F)no1             8.68
8  Cc1ccccc1C(=O)N[C@H](C)C(=O)N1CCN(CCCOc2ccc(-c3noc(CC4CCCC4)n3)c(F)c2)CC1             8.62
9  CC(C)C(=O)N[C@H](C)C(=O)N1CCN(CCCOc2ccc(-c3noc(-c4ccccc4)n3)c(F)c2)CC1             7.85

(A) C[C@@H](NC(=O)c1cccc(C#N)c1)C(=O)N1CCN(CCCOc2ccc(-c3noc(CC4CCCC4)n3)c(F)c2)CC1
(B) CC(C)OCc1nc(-c2ccc(OCCCN3CCCN(C(=O)[C@@H](C)NC(=O)c4ccco4)CC3)cc2F)no1
Q) Record comparison, field pKi: mark the lower of A and B . Identify your pick by its label.
A) B
(B: 8.43, A: 8.82)
